Would you mind telling me the reported enrichment ratio of each entry?
B1: PhoQ; a variant is named by its letters at X, in order, P23837 (parent)
chain: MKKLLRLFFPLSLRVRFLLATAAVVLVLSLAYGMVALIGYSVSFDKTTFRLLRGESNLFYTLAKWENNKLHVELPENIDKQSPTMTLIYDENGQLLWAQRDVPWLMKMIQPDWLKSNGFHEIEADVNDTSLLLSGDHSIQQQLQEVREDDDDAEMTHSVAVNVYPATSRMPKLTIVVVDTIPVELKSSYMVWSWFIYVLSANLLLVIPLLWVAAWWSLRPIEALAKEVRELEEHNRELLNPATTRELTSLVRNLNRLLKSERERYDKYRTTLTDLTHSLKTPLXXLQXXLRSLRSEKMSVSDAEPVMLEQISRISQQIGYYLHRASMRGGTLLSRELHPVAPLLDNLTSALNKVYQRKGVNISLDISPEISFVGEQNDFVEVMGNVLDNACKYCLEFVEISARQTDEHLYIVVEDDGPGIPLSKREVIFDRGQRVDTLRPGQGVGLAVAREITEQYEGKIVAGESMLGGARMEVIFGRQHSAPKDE

variants of: B1; experiment: enrichment ratio after two sorts for PhoP signalling (ratio (wild type AVST 3.29)); higher = more functional; conditions: with PhoP (E. coli)
Over roughly 140,000 sequences, “enrichment ratio after two sorts for PhoP signalling” has its median near 0; the highest 2% begin near 11. The entries come from a sample that favours the highest values as a whole.

Worked examples, 3 variants total:
# variant_name, enrichment ratio
rows = [
    ("ADCT", "≤ 0.25"),
    ("TKMM", 31.6),
    ("DNQA", "≤ 0.25"),
]

Hi! Can you tell me enrichment ratio for each of these variants?
1. YDRL
2. SVMS

["≤ 0.25", 8.47]

Hi! Can you tell me enrichment ratio for each of these variants?
1. ACMM
2. WPAY
3. NFST
4. KSND
5. CSYH

[14.1, "≤ 0.25", "≤ 0.25", "≤ 0.25", "≤ 0.25"]

Hi! Can you tell me enrichment ratio for each of these variants?
1. TCND
2. VANA
3. GFDT
4. MMTA
5. VSWN
6. TDCT
7. GWHV
8. SRSF

1: 20.6; 2: ≤ 0.25; 3: ≤ 0.25; 4: ≤ 0.25; 5: ≤ 0.25; 6: 14.8; 7: ≤ 0.25; 8: ≤ 0.25

Hi! Can you tell me enrichment ratio for each of these variants?
1. TSTA
2. SQSF
3. MMTI
4. TDQT

1. 14.2
2. 7.01
3. ≤ 0.25
4. 34.2
